Assay: basal 3T3-L1 adipocyte mitochondrial potential changes, profiling panel, cell-based, JC-1 fluorescence, 3T3-L1 adipocytes, 24 h, 100 nL compound (AID 1168); further: test concentration not given here
Conditions: JC-1 mitochondrial fluorescence, higher = more signal, called active from +8 up or from −8 down
Items are presented alongside their recorded z-score.
# answer = number (no unit)

Solved entries (count: 2):
CC(C)Cc1ccc(CN2CC[C@@H](NC(=O)c3ccccc3)C2)cc1: 0.343
CN(C)CCCC[C@@H]1NC(=O)[C@H]2C[C@@H](C(=O)NCCCCCCNC(=O)CS)[C@@H](c3cccc(OCCO)c3)N2C1=O: -0.0363

Please give measured z-score of the following entry: C=CCNC(=O)[C@@H]1[C@H]2C(=O)O[C@H](c3ccccc3)[C@H](c3ccccc3)N2[C@H](c2ccc(O)cc2)[C@@]12C(=O)Nc1ccc(C#CC3=CCCCC3)cc12 1.38

Please give measured z-score of the following entry: COc1ccc([Si](C)(C)[C@H]2[C@H](CC(=O)N3CCC[C@H]3CO)O[C@@]3(C(=O)N(C)c4c(Br)cc(C)cc43)[C@@H]2C)cc1 0.123
